system: UniProt P97266
Sequence (P97266 whole entry): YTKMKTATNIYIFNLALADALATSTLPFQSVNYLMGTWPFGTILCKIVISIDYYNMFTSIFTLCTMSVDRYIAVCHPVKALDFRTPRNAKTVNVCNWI
protocol.text: Binding affinity was determined in a crude membrane preparation from guinea pig brain by displacement of [3H]DAMGO from Opioid receptor mu 1
Assay type: cell membranes
pKi: −log10 of the molar value.

| compound.structure.string | system | pKi |
| --- | --- | --- |
| O=C1/C(=C/c2ccccc2)C[C@@]2(O)[C@H]3Cc4ccc(O)c5c4[C@@]2(CCN3CC2CC2)[C@H]1O5 | UniProt P97266 | 7.59 |
| O=C1/C(=C/c2ccc(-c3ccccc3)cc2)C[C@@]2(O)[C@H]3Cc4ccc(O)c5c4C2(CCN3CC2CC2)[C@H]1O5 | UniProt P97266 | 7.30 |
| O=C1/C(=C\c2ccc(-c3ccccc3)cc2)C[C@@]2(O)[C@H]3Cc4ccc(O)c5c4C2(CCN3CC2CC2)[C@H]1O5 | UniProt P97266 | 6.68 |
| O=C1/C(=C\c2c3ccccc3cc3ccccc23)C[C@@]2(O)[C@H]3Cc4ccc(O)c5c4C2(CCN3CC2CC2)[C@H]1O5 | UniProt P97266 | 7.47 |
| O=C1/C(=C/c2cccc3ccccc23)C[C@@]2(O)[C@H]3Cc4ccc(O)c5c4C2(CCN3CC2CC2)[C@H]1O5 | UniProt P97266 | 7.44 |
| O=C1/C(=C/c2ccc3ccccc3c2)C[C@@]2(O)[C@H]3Cc4ccc(O)c5c4C2(CCN3CC2CC2)[C@H]1O5 | UniProt P97266 | 7.64 |
| O=C1/C(=C\c2cccc3ccccc23)C[C@@]2(O)[C@H]3Cc4ccc(O)c5c4C2(CCN3CC2CC2)[C@H]1O5 | UniProt P97266 | 7.96 |
| O=C1/C(=C/c2c3ccccc3cc3ccccc23)C[C@@]2(O)[C@H]3Cc4ccc(O)c5c4C2(CCN3CC2CC2)[C@H]1O5 | UniProt P97266 | 6.96 |
| O=C1/C(=C\c2ccccc2)C[C@@]2(O)[C@H]3Cc4ccc(O)c5c4[C@@]2(CCN3CC2CC2)[C@H]1O5 | UniProt P97266 | 7.48 |

* * *

Data export: pKi values recorded with Kappa-type opioid receptor (Cavia porcellus, UniProt P41144).
Sequence (P41144 whole entry): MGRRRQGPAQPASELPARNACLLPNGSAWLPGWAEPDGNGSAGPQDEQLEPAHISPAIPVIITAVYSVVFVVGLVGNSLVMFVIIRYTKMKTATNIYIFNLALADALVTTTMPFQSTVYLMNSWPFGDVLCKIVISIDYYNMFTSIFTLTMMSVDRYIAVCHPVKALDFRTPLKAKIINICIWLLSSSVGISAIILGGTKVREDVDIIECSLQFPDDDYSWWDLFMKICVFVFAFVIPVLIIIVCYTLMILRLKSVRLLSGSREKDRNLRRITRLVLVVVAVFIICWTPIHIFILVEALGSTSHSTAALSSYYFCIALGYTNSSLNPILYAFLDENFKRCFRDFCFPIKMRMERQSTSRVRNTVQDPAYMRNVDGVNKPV
pKi: −log10 of the molar value.
readout.kind: pKi

| compound.structure.string | readout.kind | measured |
| --- | --- | --- |
| O=C1/C(=C/c2c3ccccc3cc3ccccc23)C[C@@]2(O)[C@H]3Cc4ccc(O)c5c4C2(CCN3CC2CC2)[C@H]1O5 | pKi | 6.77 |
| O=C1/C(=C\c2ccccc2)C[C@@]2(O)[C@H]3Cc4ccc(O)c5c4[C@@]2(CCN3CC2CC2)[C@H]1O5 | pKi | 7.47 |
| O=C1/C(=C/c2cccc3ccccc23)C[C@@]2(O)[C@H]3Cc4ccc(O)c5c4C2(CCN3CC2CC2)[C@H]1O5 | pKi | 6.92 |
| O=C1/C(=C/c2ccccc2)C[C@@]2(O)[C@H]3Cc4ccc(O)c5c4[C@@]2(CCN3CC2CC2)[C@H]1O5 | pKi | 7.32 |
| O=C1/C(=C\c2ccc(-c3ccccc3)cc2)C[C@@]2(O)[C@H]3Cc4ccc(O)c5c4C2(CCN3CC2CC2)[C@H]1O5 | pKi | 6.40 |
| O=C1/C(=C/c2ccc3ccccc3c2)C[C@@]2(O)[C@H]3Cc4ccc(O)c5c4C2(CCN3CC2CC2)[C@H]1O5 | pKi | 7.13 |
| O=C1/C(=C\c2c3ccccc3cc3ccccc23)C[C@@]2(O)[C@H]3Cc4ccc(O)c5c4C2(CCN3CC2CC2)[C@H]1O5 | pKi | 7.00 |
| O=C1/C(=C\c2cccc3ccccc23)C[C@@]2(O)[C@H]3Cc4ccc(O)c5c4C2(CCN3CC2CC2)[C@H]1O5 | pKi | 7.43 |
| O=C1/C(=C/c2ccc(-c3ccccc3)cc2)C[C@@]2(O)[C@H]3Cc4ccc(O)c5c4C2(CCN3CC2CC2)[C@H]1O5 | pKi | 6.72 |
